The measured values listed here are drawn from patent US20220227809A1.

tested-system: norovirus GII.17 Saitama strain virus-like particle (VLP) (norovirus GII.17 Saitama strain)
protocol-description: BLI (BLItz), biotinylated peptide on SA chip, VLP in solution
Ends that are not written are not given here.
Provide the recorded koff for the entries that follow.
// units = s⁻¹; emit number, no label

koff recorded for this binder, CKARSARGVS (also: biotinylated via PEG3 (AEEEA)-Trp spacer, attachment site and resin-derived C-terminal Lys or Cys not given here) [norovirus-binding peptide of SEQ ID NO: 288] , is 0.00747

koff reading for FVWSRRTGLY (also: biotinylated via PEG3 (AEEEA)-Trp spacer, attachment site and resin-derived C-terminal Lys or Cys not given here) [norovirus-binding peptide of SEQ ID NO: 205] : 0.0184
